assay: Static contact angle goniometry with water on modified SS316L; type: physicochemical; conditions: static, SAM of the acid on SS316L, average of at least 3 samples, 6 readings each
Some compounds, each annotated with its measured Contact angle values.
reported.endpoint: Contact angle values

                                   compound     reported_endpoint  endpoint_value
0  O=C(O)CCCCCCCCCCCCP(=O)(O)O [C12COOH—P, 12-carboxydodecanephosphonic acid]  Contact angle values           52.3°
1  CCCCCCCCCCCCCCCCCCP(=O)(O)O [ODPA, octadecylphosphonic acid]  Contact angle values            108°
2  O=C(O)CCCCCCCCCCCCC(=O)O [C14COOH—C, 1,12-dodecanedicarboxylic acid]  Contact angle values             42°
3  CCCCCCCCCCCCCCCCCCC(=O)O [ODCA, octadecylcarboxylic acid]  Contact angle values          104.1°
4  O=C(O)CCCCCCCCCCCCCCCO [C16OH—C, 16-hydroxyhexadecanoic acid]  Contact angle values           48.6°
5  NCCCCCCCCCCCCC(=O)O [C12NH2—C, 12-aminododecanecarboxylic acid]  Contact angle values           38.4°
6  O=P(O)(O)CCCCCCCCCCCO [C11OH—P, 11-hydroxyundecanephosphonic acid]  Contact angle values           59.8°
